target: cathepsin K (Homo sapiens, UniProt P43235); assay: Determination of cathepsin K proteolytic catalytic activity (fluorogenic peptide substrate); details: human recombinant enzyme
Sequence (P43235 115-329): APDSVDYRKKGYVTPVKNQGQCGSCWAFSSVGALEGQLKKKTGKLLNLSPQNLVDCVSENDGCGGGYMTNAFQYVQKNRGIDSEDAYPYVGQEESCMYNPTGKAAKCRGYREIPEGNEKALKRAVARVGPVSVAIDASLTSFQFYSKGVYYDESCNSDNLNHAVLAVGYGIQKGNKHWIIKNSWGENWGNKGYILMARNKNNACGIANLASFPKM
Strictly below 60 nM in IC50: y. Otherwise: n.

Use these answered entries as a reference point.
COMPOUND	CLASS NAME
CC(C)C[C@H](N[C@@H](c1ccc(-c2ccc(F)cc2)cc1)C(F)(F)F)C(=O)N1C[C@H](F)[C@H]2OCC(=O)[C@H]21	n
CC(C)C[C@H](N[C@@H](c1ccc(-c2cccc(S(C)(=O)=O)c2)cc1)C(F)(F)F)C(=O)N1C[C@H](F)[C@H]2OCC(=O)[C@H]21	y
CSc1ccc(-c2ccc([C@H](N[C@@H](CC(C)C)C(=O)N3C[C@H](F)[C@H]4OCC(=O)[C@H]43)C(F)(F)F)cc2)cc1	y

Find out if reported IC50 for `CC(C)C[C@H](N[C@@H](c1ccc(-c2ccccc2F)cc1)C(F)(F)F)C(=O)N1C[C@H](F)[C@H]2OCC(=O)[C@H]21` is less than 60 nM y

# TODO verify IC50 < 60 nM strictly for this compound: `CC(C)C[C@H](N[C@@H](c1ccc(-c2ccc(S(C)(=O)=O)cc2)cc1)C(F)(F)F)C(=O)N1C[C@H](F)[C@H]2OCC(=O)[C@H]21` y

* * *

molecular target: cathepsin L (Homo sapiens, UniProt P07711)
Sequence (P07711 114-333): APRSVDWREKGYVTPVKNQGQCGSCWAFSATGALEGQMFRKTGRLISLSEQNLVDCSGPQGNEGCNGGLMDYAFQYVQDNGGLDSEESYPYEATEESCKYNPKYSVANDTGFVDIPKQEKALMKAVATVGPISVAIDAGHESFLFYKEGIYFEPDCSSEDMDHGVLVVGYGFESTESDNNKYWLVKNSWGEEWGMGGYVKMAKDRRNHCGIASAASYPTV
ASSAY READOUT: pIC50
Scale note: pIC50 = -log10(concentration in M).

These solved cases illustrate the format of a correct answer.
CC(C)C[C@H](N[C@@H](c1ccc(-c2ccc(S(C)(=O)=O)cc2)cc1)C(F)(F)F)C(=O)N1C[C@H](F)[C@H]2OCC(=O)[C@H]21 4.00
CC(C)C[C@H](N[C@@H](c1ccc(-c2ccc(F)cc2)cc1)C(F)(F)F)C(=O)N1C[C@H](F)[C@H]2OCC(=O)[C@H]21 4.52
CC(C)C[C@H](N[C@@H](c1ccc(-c2csc(N3CCN(C)CC3)n2)cc1)C(F)(F)F)C(=O)N1C[C@H](F)[C@H]2OCC(=O)[C@H]21 3.86

Please find the next compound below.
Please tell me: pIC50 of `CC(C)C[C@H](N[C@@H](c1ccc(-c2ccccc2F)cc1)C(F)(F)F)C(=O)N1C[C@H](F)[C@H]2OCC(=O)[C@H]21` , system cathepsin L (Homo sapiens, UniProt P07711)? 4.60

* * *

# key: entry, value: pIC50
biological target: UniProt P25774
Sequence (P25774 115-331): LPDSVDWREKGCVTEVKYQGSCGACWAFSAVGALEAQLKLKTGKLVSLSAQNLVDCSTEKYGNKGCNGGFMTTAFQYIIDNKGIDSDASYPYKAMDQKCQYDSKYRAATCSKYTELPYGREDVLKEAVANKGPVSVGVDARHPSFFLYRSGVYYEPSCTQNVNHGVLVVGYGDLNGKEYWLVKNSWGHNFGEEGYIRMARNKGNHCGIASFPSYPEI
In textbook form, pIC50 equals minus log to base ten of the concentration in mol/L.

# example entries with known answers
MOLECULE	MEASUREMENT TARGET	REPORTED RESULT
CC(C)C[C@H](N[C@@H](c1ccc(-c2ccc(F)cc2)cc1)C(F)(F)F)C(=O)N1C[C@H](F)[C@H]2OCC(=O)[C@H]21 [Example 20]	UniProt P25774	4.43
CC(C)C[C@H](N[C@@H](c1ccc(-c2ccc([S+](C)[O-])cc2)cc1)C(F)(F)F)C(=O)N1C[C@H](F)[C@H]2OCC(=O)[C@H]21 (stereo partly drawn) [Example 29]	UniProt P25774	4.57

Query molecule follows.
Look at this molecule and give its reported pIC50. CC(C)C[C@H](N[C@@H](c1ccc(-c2cccc(S(C)(=O)=O)c2)cc1)C(F)(F)F)C(=O)N1C[C@H](F)[C@H]2OCC(=O)[C@H]21 [Example 18] 4.72

* * *

target: cathepsin K (Homo sapiens, UniProt P43235); assay: Determination of cathepsin K proteolytic catalytic activity (fluorogenic peptide substrate); settings: human recombinant enzyme
# pIC50 per entry
API: returns pIC50 as number; meaning -log10 of concentration in mol/L.

COMPOUND	REPORTED RESULT
Cc1ccc(-c2ccc([C@H](N[C@@H](CC(C)C)C(=O)N3C[C@H](F)[C@H]4OCC(=O)[C@H]43)C(F)(F)F)cc2)cc1	6.72

Which measured pIC50 value corresponds to `COc1ccc(-c2ccc([C@H](N[C@@H](CC(C)C)C(=O)N3C[C@H](F)[C@H]4OCC(=O)[C@H]43)C(F)(F)F)cc2)cc1` ? 7.15

// pIC50 lookup, key: CC(C)C[C@H](N[C@@H](c1ccc(-c2ccc([S+](C)[O-])cc2)cc1)C(F)(F)F)C(=O)N1C[C@H](F)[C@H]2OCC(=O)[C@H]21 (stereo partly shown) 7.74
